target: T1, anti-Inf-B binding antibody; test: dissociation of labelled peptide from anti-Inf-B antibody on treatment with Inf-B; fluorescence
T1 construct: also called anti-Inf-B antibody
Ends that are not written are not given here. FAM = carboxyfluorescein (FAM) fluorescent label
// relative change in fluorescence signal lookup, one value per entry
result-type: relative change in fluorescence signal

binder="{FAM}-VYYCFQGSHVPFTK (Synthetic 14-mer homologous to the FR3 or FR4 region of the light chain; also called L2 switching peptide; second peptide compound L2) [L2 peptide]" result_value=151%
binder="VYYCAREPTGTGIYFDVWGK (not fully specified (N-terminus), Synthetic 20-mer homologous to the FR3 or FR4 region of the heavy chain; The label differs between experiments; also called H2 switching peptide; fourth peptide compound H2) [H2 peptide]" result_value=199%
binder="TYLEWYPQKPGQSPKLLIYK (not fully specified (N-terminus), Synthetic 20-mer homologous to the FR2 region of the light chain; The label differs between experiments; also called L1 switching peptide; first peptide compound L1) [L1 peptide]" result_value=180%
binder="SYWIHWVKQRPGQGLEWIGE (not fully specified (N-terminus), Synthetic 20-mer homologous to the FR2 region of the heavy chain; The fluorescent label differs between experiments; also called H1 switching peptide; third peptide compound H1) [H1 peptide]" result_value=145%
